// provenance: patent US12441768B2

conditions: % Viability non-Wnt responsive cells
Where a SMILES comes first, the peptide text is derived from it.
measured-parameter: viability (%)

compound	measured-parameter	reported-result
CSCC[C@H](N)C(=O)N[C@@H](Cc1c[nH]c2ccccc12)C(=O)N[C@@H](Cc1ccccc1)C(=O)N[C@@H](CC(C)C)C(=O)N[C@@H](C)C(=O)N[C@@H](CO)C(=O)N[C@@H](Cc1ccccc1)C(=O)N[C@@H](Cc1c[nH]c2ccccc12)C(=O)NCC(=O)O [compound 158] (H-MWFLASFWG-OH)	viability	95.6
CC[C@H](C)[C@@H]1NC(=O)[C@H](CC(C)C)NC(=O)[C@H](Cc2ccccc2)NC(=O)[C@H](Cc2c[nH]c3ccccc23)NC(=O)[C@@H](NC(C)=O)CCCCNC(=O)CC[C@@H](C(=O)O)NC(=O)[C@H](Cc2c[nH]c3ccccc23)NC(=O)[C@H](Cc2ccccc2)NC(=O)[C@H](CS)NC1=O [compound 185] (HELM PEPTIDE1{[ac].K.W.F.L.I.C.F.W.E}$PEPTIDE1,PEPTIDE1,2:R3-10:R3$$$V2.0)	viability	87.8
CC[C@H](C)[C@H](NC(=O)[C@H](CC(C)C)NC(=O)[C@H](Cc1ccccc1)NC(=O)[C@H](Cc1c[nH]c2ccccc12)NC(=O)[C@H](CCSC)NC(=O)[C@H](CCCNC(=N)N)NC(=O)[C@H](CO)NC(=O)[C@@H](N)CCSC)C(=O)N[C@@H](CO)C(=O)N[C@@H](CC(C)C)C(=O)N[C@@H](Cc1c[nH]c2ccccc12)C(=O)NCC(=O)O [compound 68] (H-MSRMWFLISLWG-OH)	viability	91.2

* * *

biological target: Wnt-responsive promoter (TCF/LEF); test: Wnt-dependent luciferase reporter assay; format: cell-based, murine
Where a SMILES comes first, the peptide text is derived from it.
EC50 values, listed per item
measured-parameter: EC50

compound	reported-result
CC[C@H](C)[C@@H]1NC(=O)[C@H](CC(C)C)NC(=O)[C@H](Cc2ccccc2)NC(=O)[C@H](Cc2c[nH]c3ccccc23)NC(=O)[C@@H](N)CCCCNC(=O)C[C@@H](C(=O)O)NC(=O)[C@H](Cc2c[nH]c3ccccc23)NC(=O)[C@H](Cc2ccccc2)NC(=O)[C@H](CS)NC1=O [compound 172] (HELM PEPTIDE1{K.W.F.L.I.C.F.W.D}$PEPTIDE1,PEPTIDE1,1:R3-9:R3$$$V2.0)	< 7.5 µM
CC[C@H](C)[C@H](NC(=O)[C@H](CC(C)C)NC(=O)[C@H](Cc1ccccc1)NC(=O)[C@H](Cc1c[nH]c2ccccc12)NC(=O)[C@H](Cc1c[nH]c2ccccc12)NC(=O)[C@H](CCCNC(=N)N)NC(=O)[C@H](CO)NC(=O)[C@@H](N)Cc1c[nH]c2ccccc12)C(=O)N[C@@H](CO)C(=O)N[C@@H](Cc1ccccc1)C(=O)N[C@@H](Cc1c[nH]c2ccccc12)C(N)=O [compound 92] (H-WSRWWFLISFW-NH2)	15 to 22.5 µM
CC[C@H](C)[C@H](NC(=O)[C@H](CC(C)C)NC(=O)[C@H](Cc1ccccc1)NC(=O)[C@H](Cc1c[nH]c2ccccc12)NC(=O)[C@@H](N)CCSC)C(=O)N[C@@H](C)C(=O)N[C@@H](Cc1ccccc1)C(=O)N[C@@H](Cc1c[nH]c2ccccc12)C(=O)NCC(=O)O [compound 159] (H-MWFLIAFWG-OH)	< 7.5 µM
CC[C@H](C)[C@H](NC(=O)[C@H](CC(C)C)NC(=O)[C@H](Cc1ccccc1)NC(=O)[C@H](Cc1c[nH]c2ccccc12)NC(=O)[C@H](CCSC)NC(=O)[C@H](CCCNC(=N)N)NC(=O)CNC(=O)[C@@H](N)CCSC)C(=O)N[C@@H](CO)C(=O)N[C@@H](Cc1ccccc1)C(=O)N[C@@H](Cc1c[nH]c2ccccc12)C(=O)NCC(=O)O [compound 67] (H-MGRMWFLISFWG-OH)	< 7.5 µM
CC[C@H](C)[C@@H]1NC(=O)[C@H](CC(C)C)NC(=O)[C@H]([C@@H](C)CC)NC(=O)[C@H](Cc2c[nH]c3ccccc23)NC(=O)[C@@H](N)CCCCNC(=O)CC[C@@H](C(=O)O)NC(=O)[C@H](Cc2c[nH]c3ccccc23)NC(=O)[C@H](C)NC(=O)[C@H](CO)NC1=O [compound 184] (HELM PEPTIDE1{K.W.I.L.I.S.A.W.E}$PEPTIDE1,PEPTIDE1,1:R3-9:R3$$$V2.0)	< 7.5 µM
CCCC[C@@H]1NC(=O)[C@@H](NC(C)=O)CCCCNC(=O)C[C@@H](C(=O)O)NC(=O)[C@H](Cc2c[nH]c3ccccc23)NC(=O)[C@H](C)NC(=O)[C@H](CC)NC(=O)[C@H]([C@@H](C)CC)NC(=O)[C@H](CC(C)C)NC(=O)[C@H](CC2CCCCC2)NC(=O)[C@H](Cc2c[nH]c3ccccc23)NC1=O [compound 215] (HELM PEPTIDE1{[ac].K.[Nle].W.[Cha].L.I.[Abu].A.W.D}$PEPTIDE1,PEPTIDE1,2:R3-11:R3$$$V2.0)	> 30 µM
CC[C@H](C)[C@H](NC(=O)[C@H](CC(C)C)NC(=O)[C@@H](NC(=O)[C@H](Cc1c[nH]c2ccccc12)NC(=O)[C@@H](N)CCSC)[C@@H](C)CC)C(=O)N[C@@H](CO)C(=O)N[C@@H](Cc1ccccc1)C(=O)N[C@@H](Cc1c[nH]c2ccccc12)C(=O)NCC(=O)O [compound 155] (H-MWILISFWG-OH)	> 30 µM
CC[C@H](C)[C@H](NC(=O)[C@H](CC(C)C)NC(=O)[C@H](Cc1ccccc1)NC(=O)[C@H](Cc1c[nH]c2ccccc12)NC(=O)[C@H](C)N)C(=O)N[C@@H](CO)C(=O)N[C@@H](Cc1ccccc1)C(=O)N[C@@H](Cc1c[nH]c2ccccc12)C(=O)NCC(=O)O [compound 209] (H-AWFLISFWG-OH)	< 7.5 µM
CC[C@H](C)[C@H](NC(=O)[C@H](CC(C)C)NC(=O)[C@H](Cc1ccccc1)NC(=O)[C@H](Cc1c[nH]c2ccccc12)NC(=O)[C@H](CCSC)NC(=O)[C@H](CCCNC(=N)N)NC(=O)[C@H](CO)NC(=O)[C@@H](N)CCCNC(=N)N)C(=O)N[C@@H](CO)C(=O)N[C@@H](Cc1ccccc1)C(=O)N[C@@H](Cc1c[nH]c2ccccc12)C(N)=O [compound 84] (H-RSRMWFLISFW-NH2)	> 30 µM
CC[C@H](C)[C@H](NC(=O)[C@H](CC(C)C)NC(=O)[C@H](Cc1ccccc1)NC(=O)[C@H](Cc1c[nH]c2ccccc12)NC(=O)[C@H](Cc1ccccc1)NC(=O)[C@H](CCCNC(=N)N)NC(=O)[C@H](CO)NC(=O)[C@@H](N)CCSC)C(=O)N[C@@H](CO)C(=O)N[C@@H](Cc1ccccc1)C(=O)N[C@@H](Cc1c[nH]c2ccccc12)C(N)=O [compound 77] (H-MSRFWFLISFW-NH2)	> 30 µM
CC[C@H](C)[C@H](NC(=O)[C@H](CC(C)C)NC(=O)[C@H](Cc1ccccc1)NC(=O)[C@H](Cc1c[nH]c2ccccc12)NC(=O)[C@H](CCCNC(=N)N)NC(=O)[C@H](CCCNC(=N)N)NC(=O)[C@H](CO)NC(=O)[C@@H](N)CCSC)C(=O)N[C@@H](CO)C(=O)N[C@@H](Cc1ccccc1)C(=O)N[C@@H](Cc1c[nH]c2ccccc12)C(N)=O [compound 75] (H-MSRRWFLISFW-NH2)	> 30 µM
